Where these numbers come from: the RNAGym collection of RNA variant scans (doi:10.1002/anie.201605470)

Form field: self-cleavage (one value per entry).
B1: Osa-1-4 twister ribozyme (parent)
chain: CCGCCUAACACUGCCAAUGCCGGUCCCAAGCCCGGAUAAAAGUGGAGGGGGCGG

Variants of: B1
assay-procedure: self-cleavage, relative activity (ratio to wild type); higher = more cleavage; co-transcriptional
Lab note: jot down the number only; don't add units.

Examples with their reported self-cleavage follow.
mutation-string	self-cleavage
A41G U24G	0.04
C9G G54U	0.73
A16U G47C	0.08
A16C A8C	0.13
C11G U12C	0.08
C21A G47A	0.07
A17C G53C	0.1
C21G U37A	0.13
G42A G47A	0.08
C15A G54C	0.11

## Task Returns the measured self-cleavage for the input variant. Input: A29U U43C
## Result 0.06

## Task Looking for the measured self-cleavage of G53C U43G , can you help?
## Result 0.07

## Task Please give the measured self-cleavage for this variant: C20A C25G
## Result 0.11

## Task Look up self-cleavage for this variant: A10C U12A
## Result 0.03

## Task Form field: reported self-cleavage of A8G C20U
## Result 0.58

## Task Entry A16U G49A : reported self-cleavage = ?
## Result 0.11

## Task Fill blank: measured self-cleavage of the variant A10C G48C is ____.
## Result 0.02

## Task self-cleavage for C21U G13C ?
## Result 0.03
